test system: MDA-MB-231 complex spheroids, growth inhibition; experiment: Anticancer human tumor MDA-MB-231 cell line growth inhibition [Asc]; details: second compound 0.1 µM; first compound 3.16 µM; active means viability on the fitted dose curve at most 10% of control; inactive means the rest;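 further: spheroids exposed to compounds for 7 days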
Your response should consist of one outcome taken from TRUE = active, FALSE = inactive

Exercise: Lab log entry: O=C(c1cc(Cc2n[nH]c(=O)c3ccccc23)ccc1F)N1CCN(C(=O)C2CC2)CC1 + Cc1c(S(C)(=O)=O)c(-c2cc(F)cc(N3CCN(c4ccc(NS(=O)(=O)c5ccc(NC(CCN6CCC(C(=O)OCCCP(=O)(O)O)CC6)CSc6ccccc6)c(S(=O)(=O)C(F)(F)F)c5)cc4)CC3)c2)c(-c2ccc(Cl)cc2)n1C(C)C — outcome as called in the assay?
Key: FALSE

Exercise: Lab log entry: C=C(F)C(=O)N1CCN(c2nc(OCC3CCCN3C)nc3c2CCN(c2cccc4cccc(Cl)c24)C3)CC1CC#N (stereo not drawn) + CNC(C)C(=O)NC1CN(S(=O)(=O)c2cccc(S(=O)(=O)N3CCC4CCC(C(=O)NC(c5ccccc5)c5ccccc5)N4C(=O)C(NC(=O)C(C)NC)C3)c2)CCC2CCC(C(=O)NC(c3ccccc3)c3ccccc3)N2C1=O — outcome as called in the assay?
Key: TRUE

Exercise: Lab log entry: C=CC(=O)N1CCN(c2nc(=O)n(-c3c(C)ccnc3C(C)C)c3nc(-c4c(O)cccc4F)c(F)cc23)C(C)C1 (stereo not drawn) + Cc1c(S(C)(=O)=O)c(-c2cc(F)cc(N3CCN(c4ccc(NS(=O)(=O)c5ccc(NC(CCN6CCC(C(=O)OCCCP(=O)(O)O)CC6)CSc6ccccc6)c(S(=O)(=O)C(F)(F)F)c5)cc4)CC3)c2)c(-c2ccc(Cl)cc2)n1C(C)C — outcome as called in the assay?
Key: FALSE
